# System Tested: UniProt:Q58F21
# Run Description: competitive TR-FRET assay, BET-BD with acetylated peptide ligand
# Assay type: binding
# Particulars: Table 4; read-out: BRDT EC50
Quantity Measured: EC50 (µM)

- Compound: "COC(=O)c1ccc(N[C@@H]2C[C@H](C)N(C(C)=O)c3ccc(-c4cccc(NC(C)=O)c4)cc32)cc1 [compound 4]"
  Unit Tag: "µM"
  EC50: 4

(a) CC(=O)Nc1cccc(-c2ccc3c(c2)[C@H](Nc2ccc(Cl)cc2)C[C@H](C)N3C(C)=O)c1 [compound 10]
(b) COc1ccccc1N[C@@H]1C[C@H](C)N(C(C)=O)c2ccc(-c3cccc(NC(C)=O)c3)cc21 [compound 40]
Enquiry: I'd appreciate it if you could identify which of a and b has the greater EC50. Response format: the label of the selected entry.
Return: b
(b: 9.1 µM, a: 3.7 µM)

###

# System Tested: BRD2-BD1 (Homo sapiens (Human))
# Sequence (P25440 74-180): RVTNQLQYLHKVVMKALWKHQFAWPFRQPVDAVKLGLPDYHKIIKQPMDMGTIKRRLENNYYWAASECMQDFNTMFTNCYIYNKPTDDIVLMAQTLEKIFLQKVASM
# Run Description: competitive TR-FRET assay, BET-BD with acetylated peptide ligand
# Type: binding
# Particulars: Table 4; read-out: EC50 (μM) BRD2(1)
Quantity Measured: EC50 (µM)

The examples below pair each entry with its known result.
- Molecule: "COc1cc(F)ccc1N[C@@H]1C[C@H](C)N(C(C)=O)c2ccc(-c3cccc(NC(C)=O)c3)cc21 [compound 42]"
  System Tested: "BRD2-BD1 (Homo sapiens (Human))"
  EC50 [µM]: 13
- Molecule: "COC(=O)c1ccc(N[C@@H]2C[C@H](C)N(C(C)=O)c3ccc(-c4cccc(NC(C)=O)c4)cc32)cc1 [compound 4]"
  System Tested: "BRD2-BD1 (Homo sapiens (Human))"
  EC50 [µM]: 0.43

(a) COc1ccccc1N[C@@H]1C[C@H](C)N(C(C)=O)c2ccc(-c3cccc(NC(C)=O)c3)cc21 [compound 40]
(b) CC(=O)Nc1cccc(-c2ccc3c(c2)[C@H](Nc2ccccc2OC(F)(F)F)C[C@H](C)N3C(C)=O)c1 [compound 19]
Enquiry: Between a and b , whose recorded EC50 is greater? Output the label that corresponds to your choice.
Return: b

###

# System Tested: BRD2-BD2 (Homo sapiens (Human), UniProt P25440)
# Sequence (P25440 344-453): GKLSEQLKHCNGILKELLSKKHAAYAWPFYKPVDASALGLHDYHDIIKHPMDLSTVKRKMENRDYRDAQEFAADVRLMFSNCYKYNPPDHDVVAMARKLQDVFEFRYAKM
# Run Description: competitive TR-FRET assay, BET-BD with acetylated peptide ligand
# Assay type: binding
# Particulars: ratio of BRD2-BD1 EC50 to BRD2-BD2 EC50 (selectivity)
Quantity Measured: 2.1/2.2

- Compound: "CC(=O)N1c2ccc(-c3cc[nH]n3)cc2[C@H](Nc2ccc(F)c(F)c2)C[C@@H]1C"
  System Tested: "BRD2-BD2 (Homo sapiens (Human), UniProt P25440)"
  2.1/2.2: 36

(A) CC(=O)Nc1cccc(-c2ccc3c(c2)[C@H](Nc2cccc4ncccc24)C[C@H](C)N3C(C)=O)c1
(B) CC(=O)Nc1cccc(-c2ccc3c(c2)[C@H](Nc2ccc(N(C)C(C)=O)cc2)C[C@H](C)N3C(C)=O)c1
(C) CC(=O)Nc1cccc(-c2ccc3c(c2)[C@H](N)C[C@H](C)N3C(C)=O)c1
Enquiry: Reorder the items by 2.1/2.2, least to greatest. Answer with the labels in sequence, matching the requested order.
Return: C, B, A

###

# System Tested: BRD2-BD1 (Homo sapiens (Human))
# Run Description: competitive TR-FRET assay, BET-BD with acetylated peptide ligand
# Format: binding
# Particulars: BRD2-BD1; Table 11 additional modifications; read-out: 2.1 EC50
Quantity Measured: EC50 (µM)

Worked examples, 5 compounds total:
- Mol Smiles: "CC(=O)N1c2ccc(-c3cccc(NC(=O)C(C)(C)C)c3)cc2[C@H](NC(=O)OC(C)C)C[C@@H]1C"
  EC50 [µM]: 2.2
- Mol Smiles: "CC(=O)Nc1ccc(-c2ccc3c(c2)[C@H](Nc2ccc(Cl)cc2)C[C@H](C)N3C(C)=O)cc1"
  EC50 [µM]: 1.9
- Mol Smiles: "COC(=O)c1ccoc1-c1ccc2c(c1)[C@H](NC(=O)OC(C)C)C[C@H](C)N2C(C)=O"
  EC50 [µM]: 4
- Mol Smiles: "CC(=O)Nc1cccc(-c2ccc3c(c2)[C@H](NCc2ccccc2)C[C@H](C)N3C(C)=O)c1"
  EC50 [µM]: 13
- Mol Smiles: "CC(=O)N1c2ccc(-c3cccc(NCCCc4ccccc4)c3)cc2[C@H](NC(=O)OC(C)C)C[C@@H]1C"
  EC50 [µM]: 11

(P) CCCCCN(CCCCC)c1cccc(-c2ccc3c(c2)[C@H](Nc2ccccc2OC(F)(F)F)C[C@H](C)N3C(C)=O)c1
(Q) CC(=O)Nc1cccc(-c2ccc3c(c2)[C@H](Nc2ccc4c(c2)COC4=O)C[C@H](C)N3C(C)=O)c1
(R) CCOC(=O)c1ccc(-c2ccc3c(c2)[C@H](NC(=O)OC(C)C)C[C@H](C)N3C(C)=O)o1
Enquiry: Rank order required: EC50, descending. Answer by listing the labels in the order asked for.
Return: P, R, Q

(a) CC(=O)N1c2ccc(-c3cccc(NC(=O)CCc4ccccc4)c3)cc2[C@H](NC(=O)OC(C)C)C[C@@H]1C
(b) COC(=O)c1ccc(N[C@@H]2C[C@H](C)N(C(C)=O)c3ccc(-c4cccc(NCC5CC5)c4)cc32)cc1
Enquiry: Param pair: a , b . Output: the one whose EC50 is numerically greater. Selection: enter the item's label.
Return: b
(b: 2.5 µM, a: 1.2 µM)

(1) CC(=O)Nc1cccc(-c2ccc3c(c2)[C@H](NC2CCOCC2)C[C@H](C)N3C(C)=O)c1
(2) CC(=O)N1c2ccc(-c3ccnn3C)cc2[C@H](Nc2ccccc2OC(F)(F)F)C[C@@H]1C
Enquiry: Could you check which of 1 and 2 has a smaller value for EC50? Provide the label of your selected option as the answer.
Return: 1
(1: 3.2 µM, 2: 19 µM)

(I) CC(=O)Nc1ccc(N[C@@H]2C[C@H](C)N(C(C)=O)c3ccc(-c4cccc(NC(C)=O)c4)cc32)cc1
(II) CCCOc1cccc(-c2ccc3c(c2)[C@H](Nc2ccc(F)cc2OC)C[C@H](C)N3C(C)=O)c1
Enquiry: Param pair: I , II . Output: the one whose EC50 is numerically greater. Let me know the label of the one you choose.
Return: II
(II: 35 µM, I: 3.4 µM)

###

# System Tested: BRD3-BD1 (Homo sapiens (Human))
# Sequence (Q15059 34-140): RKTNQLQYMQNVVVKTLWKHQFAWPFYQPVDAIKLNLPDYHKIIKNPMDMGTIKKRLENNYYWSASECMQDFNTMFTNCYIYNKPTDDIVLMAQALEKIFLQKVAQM
# Run Description: competitive TR-FRET assay, BET-BD with acetylated peptide ligand
# Assay type: binding
# Particulars: BRD3-BD1; Table 11 additional modifications; read-out: 3.1 EC50
pEC50: −log10 of the molar value.
Quantity Measured: pEC50

# count of solved cases: 5
- Molecule: "CC(=O)N1c2ccc(-c3cccc(CCO)c3)cc2[C@H](NC(=O)OC(C)C)C[C@@H]1C"
  Quantity Measured: "pEC50"
  Value Measured: 6.06
- Molecule: "CC(=O)Nc1cccc(-c2ccc3c(c2)[C@H](Nc2cccc(OC(F)(F)F)c2)C[C@H](C)N3C(C)=O)c1"
  Quantity Measured: "pEC50"
  Value Measured: 5.00
- Molecule: "CC(=O)N1c2ccc(-c3cccc(-n4cccn4)c3)cc2[C@H](Nc2ccccc2OC(F)(F)F)C[C@@H]1C"
  Quantity Measured: "pEC50"
  Value Measured: 4.51
- Molecule: "COC(=O)c1ccc(N[C@@H]2C[C@H](C)N(C(C)=O)c3ccc(-c4cccc(NC(C)=O)c4)cc32)c(C)c1"
  Quantity Measured: "pEC50"
  Value Measured: 5.52
- Molecule: "C#CCCNC(=O)c1ccc(N[C@@H]2C[C@H](C)N(C(C)=O)c3ccc(-c4cccc(NC(C)=O)c4)cc32)cc1"
  Quantity Measured: "pEC50"
  Value Measured: 6.16

(a) CC(=O)Nc1cccc(-c2ccc3c(c2)[C@H](NC(=O)c2ccccc2)C[C@H](C)N3C(C)=O)c1
(b) CC(=O)N1c2ccc(-c3cccc(-n4cccn4)c3)cc2[C@H](Nc2ccc(Cl)cc2)C[C@@H]1C
(c) CC(=O)N1c2ccc(-c3cccc(NCCCc4ccccc4)c3)cc2[C@H](NC(=O)OC(C)C)C[C@@H]1C
(d) CC(=O)N1c2ccc(-c3cccc(NCC4CC4)c3)cc2[C@H](NC(=O)OC(C)C)C[C@@H]1C
(e) COC(=O)c1ccc(N[C@@H]2C[C@H](C)N(C(C)=O)c3ccc(-c4cccc(OCCN5CCOCC5)c4)cc32)cc1
Enquiry: List the 5 entries from lowest pEC50 to highest pEC50 value. Write the labels in rank order as requested.
Return: a, b, c, d, e
(a: 4.21, b: 5.00, c: 6.17, d: 6.43, e: 6.82)

(1) CCCN(CCC)c1cccc(-c2ccc3c(c2)[C@H](Nc2ccccc2OC(F)(F)F)C[C@H](C)N3C(C)=O)c1
(2) CC(=O)N1c2ccc(-c3cccc(NCC4CCOC4)c3)cc2[C@H](Nc2ccccc2OC(F)(F)F)C[C@@H]1C (some centres unmarked)
Enquiry: For the pair 1 and 2 , which entry has the numerically smaller recorded pEC50? Bench note: the answer is the label of the chosen record.
Return: 1
(1: 4.10, 2: 5.08)
